# Target entity: KRAS G12D (Homo sapiens, UniProt P01116+P62937, G12D)
# Sequence (P01116 1-169 isoform P01116-2 G12D limits assumed): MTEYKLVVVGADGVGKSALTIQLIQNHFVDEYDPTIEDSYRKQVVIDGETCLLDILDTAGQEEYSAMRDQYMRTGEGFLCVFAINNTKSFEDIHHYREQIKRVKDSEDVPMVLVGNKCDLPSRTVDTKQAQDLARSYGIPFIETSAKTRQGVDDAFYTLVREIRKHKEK
# Sequence (P62937 whole entry): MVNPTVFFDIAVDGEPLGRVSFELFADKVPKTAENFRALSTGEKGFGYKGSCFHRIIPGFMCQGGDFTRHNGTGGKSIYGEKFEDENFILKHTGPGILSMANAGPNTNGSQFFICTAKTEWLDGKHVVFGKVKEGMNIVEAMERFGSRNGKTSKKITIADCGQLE
# Assay explanation: Ras-Raf disruption / FRET / MOA assay (BRAF RBD)
# Format: biochemical
# Experimental conditions: KRAS G12D FRET data IC50, Ras-Raf disruption, with Cyclophilin A
# From the text: Disruption of […] Ras-binding Domain (BRAF^RBD) Interaction with K-Ras by Compounds of the Invention (also Called a FRET Assay or an MOA Assay) Note—The following protocol describes a procedure for monitoring disruption of K-Ras G12C (GMP-PNP) binding to BRAF^RBD by a compound of the invention. This protocol may also be executed substituting other Ras proteins or nucleotides, such as K-Ras G12D and K-Ras G13D. […]
pIC50: −log10 of the molar value.
Measurement kind: pIC50

Compound	Result
CCn1c(-c2cccnc2[C@H](C)OC)c2c3cc(ccc31)-c1cc(O)cc(c1)C[C@H](NC(=O)[C@H](C(C)C)N(C)C(=O)[C@H]1CC[C@@H](C)N1C(=O)[C@@H]1CN1)C(=O)N1CCC[C@H](N1)C(=O)OCC(C)(C)C2 [Example 153]	6.00 to 7.00
CCn1c(-c2cccnc2[C@H](C)OC)c2c3cc(ccc31)-c1cc(O)cc(c1)C[C@H](NC(=O)[C@H](C(C)C)N(C)C(=O)CN(C)C(=O)[C@H]1CN1C1COC1)C(=O)N1CCC[C@H](N1)C(=O)OCC(C)(C)C2 (stereo partly shown) [Example 275]	6.00 to 7.00
CCn1c(-c2cc(N3CCN(C)CC3)cnc2[C@H](C)OC)c2c3cc(ccc31)-c1cc(O)cc(c1)C[C@H](NC(=O)[C@H](C1CCCC1)N(C)C(=O)CN(C)C(=O)[C@H]1CN1)C(=O)N1CCC[C@H](N1)C(=O)OCC(C)(C)C2 [Example 209]	7.00 to 8.00

Next item in the queue.
pIC50 for CCn1c(-c2cccnc2[C@H](C)OC)c2c3cc(ccc31)-c1cc(O)cc(c1)C[C@H](NC(=O)[C@H](C(C)C)N(C)C(=O)CN(C)C(=O)[C@@H]1N[C@H]1C(F)(F)F)C(=O)N1CCC[C@H](N1)C(=O)OCC(C)(C)C2 [Example 260] ?
7.00 to 8.00

---

# IC50 annotations
# Target entity: KRAS WT (Homo sapiens, UniProt P01116+P62937)
# Sequence (P01116 1-169 isoform P01116-2 limits assumed): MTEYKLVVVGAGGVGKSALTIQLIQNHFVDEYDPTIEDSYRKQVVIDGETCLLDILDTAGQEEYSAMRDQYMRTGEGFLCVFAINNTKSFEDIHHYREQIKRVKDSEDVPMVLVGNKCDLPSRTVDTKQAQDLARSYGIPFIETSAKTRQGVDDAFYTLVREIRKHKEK
# Sequence (P62937 whole entry): as the sequence (P62937 whole entry) above
# Assay explanation: Disruption of BRAF RBD interaction with Ras (FRET / MOA assay, with Cyclophilin A)
# Format: biochemical
# Experimental conditions: KRAS WT; read-out: KRAS WT FRET data IC50

A selection of reference data follows.
Compound	IC50
C=C[C@@H]1C[C@]1(N)C(=O)N(C)[C@H](C(=O)N[C@H]1Cc2cc(O)cc(c2)-c2ccc3c(c2)c(c(-c2cccnc2[C@H](C)OC)n3CC)CC(C)(C)COC(=O)[C@@H]2CCCN(N2)C1=O)C(C)C	10 to 100 nM
CCn1c(-c2cccnc2[C@H](C)OC)c2c3cc(ccc31)-c1csc(n1)C[C@H](NC(=O)C1(F)COC1)C(=O)N1CCC[C@H](N1)C(=O)OCC(C)(C)C2	100 to 1000 nM
CCn1c(-c2cc(N3CCN(C)CC3)cnc2[C@H](C)OC)c2c3cc(ccc31)-c1csc(n1)C[C@H](NC(=O)[C@H](C1CCCC1)N(C)C(=O)N(C)C)C(=O)N1CCC[C@H](N1)C(=O)OCC(C)(C)C2 (atropisomer, axis not shown)	10 to 100 nM

Next item in the queue.
Find IC50 (KRAS WT (Homo sapiens, UniProt P01116+P62937)) for the entry "CCN(CC)C1CN(C(=O)N(C)[C@H](C(=O)N[C@H]2Cc3nc(cs3)-c3ccc4c(c3)c(c(-c3cccnc3[C@H](C)OC)n4CC)CC(C)(C)COC(=O)[C@@H]3CCCN(N3)C2=O)C(C)C)C1"
100 to 1000 nM

Cited source for all entries: patent US20230233569A1
